- Tested on: CAMK2B;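 also: KINOMEscan kinase panel screen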
- condition.set: concentration: 1 μM,replicates: in singlicate; n = 1
measured.property: %Inh
The reply must contain the numeric value and, after it, the unit.

CCn1c(-c2nonc2N)nc2cncc(Br)c21 [SB-738004] :: 29%
C[C@@H](Oc1cc(-n2cnc3cc(-c4cnn(C)c4)ccc32)sc1C(N)=O)c1ccccc1Cl [GSK580432] :: 9%
Cn1ccc2ncnc(Oc3ccc(NC(=O)Nc4cccc(C(F)(F)F)c4)c(F)c3)c21 :: 8%
Nc1nccc(-c2ccc3c(N)n[nH]c3c2)n1 [GSK1034945] :: 5%
COc1cc2c(Nc3ccc(NC(=O)c4ccccc4)cc3)ncnc2cc1OCCCN1CCOCC1 [GSK301329] :: 0%

Please look at the items below and tell me %Inh for each one, in order.
1. CCn1c(-c2nonc2N)nc2cncc(CNC3CCNCC3)c21.Cl [SB-747651]
2. CS(=O)(=O)Nc1ccc(-c2ccnc3[nH]ccc23)cc1 [GSK993273]
3. C[C@@H]1CNc2c(sc3ccc4nc(-c5ccncc5)ccc4c23)C(=O)N1
4. CC(=O)Nc1nc2cnc(Nc3cc(NC(=O)c4cccc(CC(C)(C)C#N)c4)ccc3C)nc2s1

1. 0%
2. 7%
3. 23%
4. 0%
